Molecular target: T1, SH3A-SH2 fragment of Vav1 (596-771) (mouse, UniProt P27870 596-771)
T1 sequence (looked up): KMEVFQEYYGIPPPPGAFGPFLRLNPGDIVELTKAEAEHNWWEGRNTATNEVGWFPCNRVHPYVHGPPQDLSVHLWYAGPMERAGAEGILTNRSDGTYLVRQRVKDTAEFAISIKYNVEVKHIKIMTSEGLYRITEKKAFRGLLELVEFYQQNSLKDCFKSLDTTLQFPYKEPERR
Test: ITC
Where no end group is shown, it is not given here. [ ]: non-standard residue; d: D form. pY = N[C@@H](Cc1ccc(OP(=O)(O)O)cc1)C(=O)O
endpoint: Kd (nM)
# number only, unit nM dropped from output

The binder identified as DGD[pY]ESPNE [SLP76 pY128 peptide] registered its Kd at 1040
